observation.type: MIC

# value of MIC, Str. pyogenes, G-36, item CCC(N)C1CCN(c2c(F)cc3c(=O)c(C(=O)O)cn(C4CC4)c3c2F)C1 (single isomer, unassigned) = ≤ 0.05 µg/mL

# value of MIC, Str. pyogenes, G-36, item CC(C)(N)C1CCN(c2c(F)cc3c(=O)c(C(=O)O)cn(C4CC4)c3c2F)C1 (stereo not drawn) = ≤ 0.05 µg/mL

# value of MIC, Str. pyogenes, G-36, item CCC(N)C1CCN(c2c(F)cc3c(=O)c(C(=O)O)cn(CC)c3c2F)C1 (stereo not drawn) [Example 10] = ≤ 0.05 µg/mL
